meta.source: the RNAGym collection of RNA variant scans (doi:10.1021/acssynbio.7b00057)

B1: Pistol ribozyme (parent)
chain: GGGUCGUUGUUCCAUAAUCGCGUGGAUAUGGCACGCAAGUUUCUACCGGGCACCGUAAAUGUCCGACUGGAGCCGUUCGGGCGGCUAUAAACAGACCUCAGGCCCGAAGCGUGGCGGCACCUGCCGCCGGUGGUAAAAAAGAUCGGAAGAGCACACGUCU

Variants of: B1
Assay: aptazyme ON/OFF ratio, guanine; higher = stronger switching; co-transcriptional cleavage with and without guanine
reportedEndpoint: aptazyme ON/OFF ratio
Quick one: just the number, no unit, thanks!

INSERT INTO assay_data (mutantdesignation, observedvalue) VALUES
  ('U7C U8G G9C U11G C12U C13A', 1.2),
  ('U7G U11A C13G', 1.08),
  ('U7C U11G C12A C13U', 1.17),
  ('U8G G9C U10G U11A C12G', 1.15),
  ('U7A U8C G9U U10G U11A C13G', 1.08),
  ('U7A U10C U11G C12A C13U', 1.26);

Okay, next one:
-- ask Bench note: what aptazyme ON/OFF ratio did U8G G9C U11G C12G C13A show?
-- reply 1.09
